Species on record: Gallus gallus
METHOD SUMMARY: Hypocholesterolemic activity in 6-week old male mormocholesterolemic chickens using experiment 4
Format: functional
PROPERTY NAME: Triglycerides (mg 100ml-1)
Quick note: give the figure in mg 100ml-1, leave out the unit.

Answered cases to consult:
COMPOUND	PROPERTY NAME	MEASURED NUMBER
CC(C)=CCCC1(C)CCc2cc(O)ccc2O1 (stereo unspecified)	Triglycerides	73
CC(C)=CCC/C(C)=C\CCC1(C)CCc2cc(O)ccc2O1 (stereo unspecified)	Triglycerides	67
CC(=O)Oc1cc2c(c(C)c1C)OC(CC/C=C(\C)CC/C=C(\C)CCC=C(C)C)CC2 (stereo unspecified)	Triglycerides	67

### Prompt Entry under review: CC(C)=CCC/C(C)=C/CC/C(C)=C/CCC1(C)CCc2cc(O)c(C)c(C)c2O1 (stereo unspecified) . Reported Triglycerides?
### Response 57

### Prompt Triglycerides for CC(C)=CCC/C(C)=C/CC/C(C)=C/CCC1CCc2cc(O)c(C)c(C)c2O1 (stereo unspecified) ?
### Response 83

### Prompt Recorded Triglycerides for CC(C)=CCC/C(C)=C/CCC1(C)CCc2cc(O)ccc2O1 (stereo unspecified) , please?
### Response 73
